phosphorylation enrichment values for the sequences below.
target: EPHB2 (UniProt P29323); test: phosphorylation enrichment, bacterial display (enrichment ratio); higher = better substrate or ligand; peptides without Tyr show the background
Sequence (P29323 whole entry, looked up): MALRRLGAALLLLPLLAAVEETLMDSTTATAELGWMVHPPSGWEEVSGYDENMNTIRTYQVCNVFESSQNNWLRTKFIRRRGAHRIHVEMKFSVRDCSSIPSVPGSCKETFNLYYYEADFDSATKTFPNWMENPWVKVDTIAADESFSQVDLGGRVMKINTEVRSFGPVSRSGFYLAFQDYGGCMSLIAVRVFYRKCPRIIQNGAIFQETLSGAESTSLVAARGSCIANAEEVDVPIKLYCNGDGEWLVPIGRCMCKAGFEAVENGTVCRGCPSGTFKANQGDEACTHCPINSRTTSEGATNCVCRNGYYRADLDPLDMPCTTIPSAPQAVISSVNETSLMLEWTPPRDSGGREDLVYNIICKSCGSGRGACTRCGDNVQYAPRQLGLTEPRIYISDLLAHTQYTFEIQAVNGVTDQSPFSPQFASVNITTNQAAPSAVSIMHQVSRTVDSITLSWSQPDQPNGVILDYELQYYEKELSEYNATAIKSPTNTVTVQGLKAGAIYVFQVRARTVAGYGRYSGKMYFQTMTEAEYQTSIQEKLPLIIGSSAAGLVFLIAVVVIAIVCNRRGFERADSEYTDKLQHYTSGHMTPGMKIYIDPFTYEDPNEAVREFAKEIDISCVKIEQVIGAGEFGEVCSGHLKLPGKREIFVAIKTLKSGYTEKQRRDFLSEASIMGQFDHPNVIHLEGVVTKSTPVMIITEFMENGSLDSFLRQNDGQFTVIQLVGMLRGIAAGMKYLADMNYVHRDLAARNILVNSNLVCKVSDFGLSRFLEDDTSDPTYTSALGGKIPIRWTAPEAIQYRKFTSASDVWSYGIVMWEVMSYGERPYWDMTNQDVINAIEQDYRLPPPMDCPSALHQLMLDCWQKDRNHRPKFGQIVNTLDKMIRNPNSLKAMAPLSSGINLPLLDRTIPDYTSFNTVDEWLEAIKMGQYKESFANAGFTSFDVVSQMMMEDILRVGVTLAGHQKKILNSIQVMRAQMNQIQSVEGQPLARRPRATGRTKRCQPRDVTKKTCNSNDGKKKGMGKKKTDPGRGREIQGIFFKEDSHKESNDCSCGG

KFEDVYVGICL [B3GALNT1_Y269]    0.715
FFIMMYTGSNV [DNAJC13_Y1131]    0.664
ISRDVYSTDYY [NTRK2_Y702_M697I]    2.51

Can you look up the measured phosphorylation enrichment of SPRDTYSDRIG [CTPS1_Y567_S571I] for me?
0.5

Can you look up the measured phosphorylation enrichment of FRPPYYHRDCM [HGD_Y334_N337D] for me?
0.611

Need phosphorylation enrichment, item GGSSPYSRRLA [CDK13_Y351_P356A]
0.326

Which phosphorylation enrichment value belongs to GGGFGYQKTKK [DDX18_Y643] ?
0.318

---

test system: AncSZ; assay: phosphorylation enrichment, bacterial display (enrichment ratio); higher = better substrate or ligand; peptides without Tyr show the background
# label = Fulfilled if phosphorylation enrichment >= 0.8 else Not fulfilled

SFGENYDNSKS [MAN1B1_Y60]    Not fulfilled

Please examine the following record next.
hey, is phosphorylation enrichment for this one >= 0.8? SPQAHYRLSAF [ADAMTS9_Y100_S96P]
Not fulfilled

---

The following sequences are listed with their measured SH2 binding enrichment values.
target: c-Src SH2; test: SH2 binding enrichment of the phosphorylated peptide, bacterial display (enrichment ratio); higher = better substrate or ligand; peptides without Tyr show the background;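 note: peptide library displayed on the E. coli surface as eCPX fusions, selected cells deep-sequenced, score is each peptide's frequency after selection divided by its frequency in the input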
Note: the reply should be a number with no unit written.

These solved cases illustrate the format of a correct answer.
FGGTVYHSPVS [PRC1_Y511]    1.72
KGFRGYSFDDI [TMEM230_Y110_YF]    0.453
GGTTMYPGIAD [ACTC1_Y308]    0.393
VAMDDYLKNVM [LRRK2_Y707]    0.418
RSSPVYVGRVV [TGM2_Y219]    0.758

Form field: reported SH2 binding enrichment of SVVVPYEAPEV [TP53_Y220_P222A]
1.26

Quick one: SH2 binding enrichment of EVDETYVPKKF [ALB_Y521_E525K] ?
0.613

Need SH2 binding enrichment of EESREYDRLYE [PIK3R1_Y463_K459E] , thanks.
7.14

Can you share its SH2 binding enrichment? I mean this sequence: EQFELHCEMGS [CBL_Y371_Y371H_YF]
0.606

Look up SH2 binding enrichment: RGDCTYAPLLG [AR_Y269_M268T]
0.896

Param item = SCTFTYLLGDR [ETHE1_Y38] ; retrieve measured SH2 binding enrichment.
0.588

What does the data say about its SH2 binding enrichment? Entry: FLGRNYLETLM [DUS3L_Y610_D609N_YF]
0.605

Look up SH2 binding enrichment: AAVLNYKAGRD [GRIN2A_Y737]
0.447

Please report the recorded SH2 binding enrichment for RTCSSYTIEKI [PARP15_Y520_A521T] .
0.59

// SH2 binding enrichment lookup, key: DVSVVYSEVKT [FCRL4_Y493]
1.11

---

target: FGFR1 (UniProt P11362); assay: phosphorylation enrichment, bacterial display (enrichment ratio); higher = better substrate or ligand; peptides without Tyr show the background
Sequence (P11362 whole entry, looked up): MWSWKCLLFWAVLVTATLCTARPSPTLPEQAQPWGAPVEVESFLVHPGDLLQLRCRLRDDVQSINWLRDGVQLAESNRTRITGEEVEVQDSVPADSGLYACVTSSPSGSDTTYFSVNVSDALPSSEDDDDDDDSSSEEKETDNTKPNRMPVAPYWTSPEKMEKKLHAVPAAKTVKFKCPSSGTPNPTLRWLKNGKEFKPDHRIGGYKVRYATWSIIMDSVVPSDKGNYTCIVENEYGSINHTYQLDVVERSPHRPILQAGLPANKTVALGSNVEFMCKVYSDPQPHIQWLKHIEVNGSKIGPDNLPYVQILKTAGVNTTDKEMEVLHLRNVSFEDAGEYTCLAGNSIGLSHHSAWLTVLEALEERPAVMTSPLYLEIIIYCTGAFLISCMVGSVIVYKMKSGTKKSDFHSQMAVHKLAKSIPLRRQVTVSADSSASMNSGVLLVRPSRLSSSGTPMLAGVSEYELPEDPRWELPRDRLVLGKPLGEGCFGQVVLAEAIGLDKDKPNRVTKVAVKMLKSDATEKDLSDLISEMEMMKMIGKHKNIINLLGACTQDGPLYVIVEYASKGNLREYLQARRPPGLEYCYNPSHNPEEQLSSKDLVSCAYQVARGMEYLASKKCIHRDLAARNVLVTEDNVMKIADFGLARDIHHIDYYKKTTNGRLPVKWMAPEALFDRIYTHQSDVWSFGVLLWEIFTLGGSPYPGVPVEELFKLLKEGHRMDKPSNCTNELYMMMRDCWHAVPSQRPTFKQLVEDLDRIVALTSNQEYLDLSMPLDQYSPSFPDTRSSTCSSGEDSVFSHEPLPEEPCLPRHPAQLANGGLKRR
quantity.name: phosphorylation enrichment
Give a plain numeric answer without units written out.

Example cases with answers are listed next.
EQFELHCEMGS [CBL_Y371_Y371H_YF]    0.496
IEEGTYGVVYR [CDK11B_Y449]    0.509

Which phosphorylation enrichment is reported for this sequence? `TENAGYYFRIS`
0.575

Entry under review: KGELRYMHSRV [ABCD1_Y281] . Reported phosphorylation enrichment?
0.428

What measured phosphorylation enrichment goes with HAKKNYGNSSV [HDX_Y197] ?
0.406

Find the recorded phosphorylation enrichment belonging to CTIIHYNYMCN [TP53_Y234_T231I] and report it.
0.583

Record request: phosphorylation enrichment value, item SDGHEYIYVDP [PDGFRB_Y579]
8.64

Data request, read-out phosphorylation enrichment, for IYETDYYQKGG [INSR_Y1189_R1191Q]
1.52

Look up phosphorylation enrichment: PQQLWYTHKKK [UBTF_Y207_E210K]
0.888

For the sequence shown here, QLAPQYTYTQG [FLNA_Y1761_A1764T] , give the reported phosphorylation enrichment.
0.411

---

system: c-Src; assay: phosphorylation enrichment, bacterial display (enrichment ratio); higher = better substrate or ligand; peptides without Tyr show the background
Label Met when phosphorylation enrichment is at or above 0.6; anything below gets Not met.

Record excerpt, results attached:
SHNELYYEEAE [VANGL1_Y344]    Not met
STAPSYGNPSS [CD19_Y378_G373S]    Not met
FDAHIYEGRVI [PRKCD_Y64]    Met
ASNFNYFYHRE [KCNA1_Y413_V408A]    Not met
DPNQQYYIAMD [TBX15_Y159_H156N]    Met

# next sequence below
Does phosphorylation enrichment meet or surpass 0.6 for QMVGKYASSYM [AVPR2_Y124_M123K] ?
Not met

---

biological target: EPHB2 (UniProt P29323); test: phosphorylation enrichment, bacterial display (enrichment ratio); higher = better substrate or ligand; peptides without Tyr show the background
# phosphorylation enrichment >= 0.5 gives true, anything below gives false

Below, 10 sequences whose answers are already recorded.
CTTIHYNHMCN [TP53_Y234_Y236H]    false
FQSKHYACIRQ [TIMP3_Y182_YF]    false
AAVDNYCRHNF [HLA-DRB1_Y107_T106N_YF]    false
HLAQRYLIWEC [SCN5A_Y694_R689H]    true
SPFEVYVDKSQ [FLNA_Y373]    true
KLKRSYSSRDI [USP8_Y717_P720R]    false
IYETDYYQKGG [INSR_Y1189_R1191Q]    true
RRNVYYYSYLL [PTEN_Y177_Y174N]    true
CPSLPYSPVSS [CAMKK2_Y128]    true
HRGCLYLAIEY [TEK_Y899_Y897C]    true

Check the entry RIVRKYKKVRF [F8_Y442_G439V] : does phosphorylation enrichment equal or exceed 0.5?
true

Given CSRCFYQLTKL [AR_Y858_R856C] , state whether its phosphorylation enrichment is at least 0.5.
false

Form field: phosphorylation enrichment at least 0.5? Entry: QMVRMYASSFM [AVPR2_Y124_G122R_YF]
true

Confirm if phosphorylation enrichment reported for the sequence INASGYRIGPA [ACSM1_Y477] is 0.5 or above.
false

Assess whether reported phosphorylation enrichment for FGMQLYQKFMH [GRB14_Y347_N349K_YF] sits at 0.5 or higher.
true

Evaluate HAKKNYGNSSV [HDX_Y197] : phosphorylation enrichment at minimum 0.5?
false

Dear colleague, could you confirm whether PVQAASQKVVA [HBB_Y131_Y131S] has phosphorylation enrichment at or above 0.5?
false

Hi team, for NLMPAYFKCIQ [CYP21A2_Y190_YF] , is the recorded phosphorylation enrichment at or above 0.5?
true

I'd appreciate it if you could say whether PSSNLYFRWLT [CNGA3_Y168_YF] has phosphorylation enrichment at least equal to 0.5.
true

Can GGQDVYGDFGG [Probound] be said to have phosphorylation enrichment at or above 0.5?
true

Entry SLDLSYFHTSS [EMD_Y181_P183H_YF] : is its phosphorylation enrichment no less than 0.5?
true

// inclusive: phosphorylation enrichment at least 0.5? input: KIIRRYVSSEG [ANK2_Y3907]
false

Does the reported phosphorylation enrichment for FLRTGYSIPFG [TGM1_Y370_V372I_YF] fall at or above the 0.5 mark?
false

Could you tell me if the measured phosphorylation enrichment of RLEGVYRNNID [PTEN_Y46] reaches 0.5 or more?
true

Tell me whether phosphorylation enrichment is at least 0.5 here: LSERGYSFVTT [ACTA2_Y200_T196S]
true

Is reported phosphorylation enrichment greater than or equal to 0.5 here: SVVVPYEAPEV [TP53_Y220_P222A]
false

---

molecular target: Fyn (UniProt P06241); assay: phosphorylation enrichment, bacterial display (enrichment ratio); higher = better substrate or ligand; peptides without Tyr show the background
Sequence (P06241 whole entry, looked up): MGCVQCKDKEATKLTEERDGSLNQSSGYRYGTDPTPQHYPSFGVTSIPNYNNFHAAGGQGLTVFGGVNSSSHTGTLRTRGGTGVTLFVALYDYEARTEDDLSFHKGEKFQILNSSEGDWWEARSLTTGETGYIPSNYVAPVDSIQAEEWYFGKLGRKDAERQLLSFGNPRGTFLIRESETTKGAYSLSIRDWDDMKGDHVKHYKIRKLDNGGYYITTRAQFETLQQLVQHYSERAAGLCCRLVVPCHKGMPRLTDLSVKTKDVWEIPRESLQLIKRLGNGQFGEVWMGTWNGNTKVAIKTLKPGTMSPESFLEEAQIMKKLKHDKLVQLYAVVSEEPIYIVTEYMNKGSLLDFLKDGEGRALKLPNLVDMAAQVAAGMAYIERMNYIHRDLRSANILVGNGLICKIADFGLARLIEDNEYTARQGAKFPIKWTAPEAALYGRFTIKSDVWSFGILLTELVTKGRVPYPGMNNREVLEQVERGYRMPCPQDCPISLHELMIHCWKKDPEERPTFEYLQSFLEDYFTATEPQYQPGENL
Attribute: phosphorylation enrichment
# respond with the number and nothing more

Some sequences with recorded phosphorylation enrichment:
CRPPYYHRNCM [HGD_Y334_F329C]    0.565
IATTIYSGDKI [UGGT2_Y823_A821T]    0.591
KDHRDYKFQPR [SOX9_Y172_P170R_YF]    0.49

Now for the sequence whose phosphorylation enrichment we want.
Give phosphorylation enrichment (Fyn (UniProt P06241)) of the following sequence: PPAPRYHHSAV [LZTR1_Y119]
0.457
